The entries below come with measured ED50 values attached.
Test system: bronchospasms elicited by 5-hydroxytryptamine
Experiment: bronchodilator activity, Konzett procedure, 5-hydroxytryptamine bronchospasm
Format: in vivo, guinea pigs
Stated conditions: Cavia porcellus; three logarithmic cumulative intravenous doses; spasmogen 5-hydroxytryptamine
Description: The compounds of this invention are useful as bronchodilators for the treatment of asthma and chronic bronchitis. Bronchodilator activity is determined in guinea pigs against bronchospasms elicited by intravenous injections of 5-hydroxytryptamine, histamine or acetylcholine by the Konzett procedure. [See J. Lulling, P. Lievens, F. El Sayed and J. Prignot, Arzneimittel-Forschung, 18, 955 (1968).] […]
Provide only the numeric value, understood in mg/kg.

Worked cases, ED50 given:
Answer with the recorded ED50 for the compound listed here: CCCCC1([C@H](O)/C=C/[C@H]2[C@H](O)CC(=O)[C@@H]2C/C=C\CCCC(=O)O)CCC1 (relative stereo)
0.0025

Answer with the recorded ED50 for the compound listed here: CCCCC1([C@@H](O)/C=C/[C@H]2[C@H](O)CC(=O)[C@@H]2C/C=C\CCCC(=O)O)CCC1 (relative stereo)
0.305

Answer with the recorded ED50 for the compound listed here: CCCCC1([C@@H](O)/C=C/[C@H]2CCC(=O)[C@@H]2CCCCCCC(=O)O)CCC1 (relative stereo)
0.135

Attention now shifts to the item below.
Answer with the recorded ED50 for the compound listed here: CCCCC1([C@H](O)/C=C/[C@H]2CCC(=O)[C@@H]2CCCCCCC(=O)O)CCC1 (relative stereo)
0.02
